These data points were gathered from PubChem BioAssay.

# assay_text: 384-well plate pilot, post-Golgi transport modulator project, inhibition of yeast transport mutant growth (AID 636)
# test_settings: absorbance 615 nm, about 18 h, stronger effect = higher value
observation_type: inhibition (%)

{"compound": "Cn1c(C(=O)OC(C(=O)NC2CCCC2)c2cccnc2)cc2sccc21 (stereo unspecified)", "observed": -4.38}
{"compound": "O=C(c1cnn2c(C(F)F)cc(-c3ccccc3)nc12)N1CCN2CCCC2C1 (stereo unspecified)", "observed": -4.79}
{"compound": "Cc1ccc(C2/C(=C(/O)c3cnn(-c4ccccc4)c3C)C(=O)C(=O)N2CCN2CCOCC2)o1 (stereo unspecified)", "observed": -4.61}
{"compound": "CCOC(=O)N1CCC(N(C(=O)Nc2ccc(Cl)c(Cl)c2)C(C)CC)CC1 (stereo unspecified)", "observed": -2.63}
{"compound": "O=S(=O)(Nc1cccnc1)c1ccc2c(c1)OCCO2", "observed": -6.97}
{"compound": "CC(C)Cn1c2c(c(O)c(C(=O)Nc3ncccc3O)c1=O)CCCC2", "observed": -2}
{"compound": "Cn1c(=O)c(=O)n(C)c2cc(S(=O)(=O)Nc3ccc4c(c3)OCCO4)ccc21", "observed": -0.67}
{"compound": "O=C(O)CCc1ccc(-c2ccc(F)cc2)n1CCC(=O)O", "observed": -7.53}
{"compound": "CCCC1Cc2c(sc3ncnc(N)c23)CO1 (stereo unspecified)", "observed": -0.14}
{"compound": "COC(=O)c1cc2ccsc2n1CC(=O)N(C)c1ccccc1", "observed": 0.26}
{"compound": "Oc1ccc(/C=C/c2cc(O)cc(O)c2)cc1", "observed": 0.13}

###

# assay_text: growth suppression of yeast trafficking mutant, preliminary HTS, modulators of trafficking downstream of Golgi apparatus project, 1536-format plate, OD 615 nm (AID 637)
# test_settings: yeast transport mutant growth, absorbance 615 nm, 18 h; stronger effect = higher value
observation_type: inhibition (%)

{"compound": "CCS(=O)(=O)N1CCC(C(=O)N2CCOCC2)CC1", "observation_type": "inhibition", "observed": -0.16}
{"compound": "O=C(Nc1ccccc1C(=O)N1CCOCC1)c1ccncc1", "observation_type": "inhibition", "observed": -2.22}
{"compound": "CCN(CCO)C(=O)CC(c1ccccc1)c1cc(Br)ccc1O (stereo not drawn)", "observation_type": "inhibition", "observed": -3.09}
{"compound": "CC1CCN(CCc2nc3cc(NS(=O)(=O)c4ccc(F)cc4)ccc3n2C)CC1", "observation_type": "inhibition", "observed": 0.97}
{"compound": "CCCOC(=O)/C(C(N)=NCc1ccccc1)=C(\\O)OCCC", "observation_type": "inhibition", "observed": -2.79}
{"compound": "COc1cccc(N2C(=O)N(c3ccccc3Cl)C3CS(=O)(=O)CC32)c1 (stereo not drawn)", "observation_type": "inhibition", "observed": 3.45}
{"compound": "Cc1nc2ncnn2c(C)c1CCC(=O)NCCCN1CCN(c2cccc(Cl)c2)CC1", "observation_type": "inhibition", "observed": -3.77}
{"compound": "COC(=O)c1[nH]c2ccccc2c1NS(=O)(=O)c1ccc(OC)cc1OC", "observation_type": "inhibition", "observed": -3.82}
{"compound": "COC(=O)C1=C(C)Nc2ncnn2C1c1ccco1 (stereo not drawn)", "observation_type": "inhibition", "observed": 4.91}
{"compound": "O=C(CSc1nnc(-c2ccco2)n1CC1CCCO1)N1CCCCC1 (stereo not drawn)", "observation_type": "inhibition", "observed": 0.36}
{"compound": "CCN(c1ccccc1)S(=O)(=O)c1ccc(F)cc1C", "observation_type": "inhibition", "observed": -5.71}
{"compound": "CCOC(=O)Cc1nnc(Nc2cccc(O)c2)c2ccccc12", "observation_type": "inhibition", "observed": 0}
{"compound": "CC(=O)C(Sc1ncnc2c1nnn2-c1ccc(F)cc1)C(=O)N(C)C (stereo not drawn)", "observation_type": "inhibition", "observed": 4.1}
{"compound": "CCOc1ccccc1C1N(c2ccc(F)cc2)C(=O)C2CCCN21 (stereo not drawn)", "observation_type": "inhibition", "observed": 2.18}
{"compound": "COc1ccc(-n2c(=O)cc(N3CCN(Cc4ccccc4)CC3)[nH]c2=O)cc1", "observation_type": "inhibition", "observed": -4}
{"compound": "CC1(C)O[C@@H]2C[C@H]3[C@@H]4C[C@H](F)C5=CC(=O)CC[C@]5(C)[C@H]4[C@@H](O)C[C@]3(C)[C@]2(C(=O)CO)O1", "observation_type": "inhibition", "observed": -0.5}
{"compound": "CCCC1(CCC)NC(=O)NC1=O", "observation_type": "inhibition", "observed": 0.66}
{"compound": "CCOC(=O)c1sc2nc(SCC#N)n(CCCN3CCCC3=O)c(=O)c2c1C", "observation_type": "inhibition", "observed": -1.48}
{"compound": "C[C@H](CS)C(=O)N1CCC[C@H]1C(=O)O", "observation_type": "inhibition", "observed": 2.83}
{"compound": "CCCN(CCO)Cc1cccc(Br)c1", "observation_type": "inhibition", "observed": 3.65}
{"compound": "Cc1cc(NC(=O)C2CCCC2)nc2c1c(=O)oc1ccccc12", "observation_type": "inhibition", "observed": 3.49}
{"compound": "COCCN(C(=O)CNC(=O)c1ccco1)C(C(=O)NC1CCCCC1)c1cccc(OC)c1 (stereo not drawn)", "observation_type": "inhibition", "observed": -1.17}
{"compound": "O=c1cc(CSc2nnc(COc3ccc(Cl)cc3)o2)c2ccccc2[nH]1", "observation_type": "inhibition", "observed": -6.67}

###

Below: a set of entries, each annotated with reported viability.
# assay_text: growth inhibitors of H69AR lung tumor, primary screen, human, duplicate replicates (AID 580);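 further: 100% = mean luminescence of untreated wells and 0% = no signal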
# test_settings: H69AR lung tumor cells viability, ATP luminescence, 72 h; at 10 µM; stronger effect = lower value
observation_type: viability (%)

{"molecule": "CCOc1cc(C2Nc3ccccc3C(=O)N2c2ccccc2OC)ccc1O (centres undefined)", "observation_type": "viability", "observed": 95}
{"molecule": "O=C(Nc1ccc(F)cc1)NC1CCN(Cc2nnnn2Cc2ccco2)CC1", "observation_type": "viability", "observed": 88.2}
{"molecule": "COC(=O)c1c(NC(=O)C2CC=CCC2C(=O)O)sc(C(N)=O)c1C (centres undefined)", "observation_type": "viability", "observed": 98.2}
{"molecule": "O=C(O)Cc1ccccc1C(=O)O", "observation_type": "viability", "observed": 95.1}
{"molecule": "O=C(NC1CCCCC1)c1nc2c(nnn2Cc2ccccc2Cl)c(=O)[nH]1", "observation_type": "viability", "observed": 110}
{"molecule": "O=C(COc1ccc(Cl)cc1)Nc1ncccn1", "observation_type": "viability", "observed": 107}
{"molecule": "N#Cc1cnc(SCCc2ccccc2)nc1N", "observation_type": "viability", "observed": 97.8}
{"molecule": "COc1ccc(Nc2nc(Nc3ccc(OC)cc3)nc(-n3[nH]c(=O)c(C)c3C)n2)cc1", "observation_type": "viability", "observed": 12.1}
{"molecule": "O=C1C2ON(c3ccccc3)C(c3cccnc3)C2C(=O)N1c1ccccc1 (centres undefined)", "observation_type": "viability", "observed": 89.8}
{"molecule": "CN(C(=O)c1ccc(S(=O)(=O)NC2CCCC2)cc1)C1CCCCC1", "observation_type": "viability", "observed": 102}
{"molecule": "CCOc1ccc(CCNc2nc3c(c(=O)n(C)c(=O)n3C)n2CC)cc1OCC", "observation_type": "viability", "observed": 88.9}
{"molecule": "Cc1cc(S(=O)(=O)N2CCN(c3ccccc3C)CC2)ccc1F", "observation_type": "viability", "observed": 79.5}
{"molecule": "O=C(CSc1nc2ccccc2[nH]1)c1ccc2c(c1)OCO2", "observation_type": "viability", "observed": 107}
{"molecule": "CCn1cc(C(=O)O)c(=O)c2cc(F)c(N3CCNCC3)cc21", "observation_type": "viability", "observed": 92.1}
{"molecule": "Cc1onc(-c2c(F)cccc2Cl)c1C(=O)Nc1nc2c(s1)CCCC2", "observation_type": "viability", "observed": 77.3}
{"molecule": "CCn1c(SCC(=O)c2ccc(C)cc2)nnc1-c1ccoc1C", "observation_type": "viability", "observed": 108}
{"molecule": "CC(=O)NC1=NC(=O)/C(=C/N2CCCCC2)S1", "observation_type": "viability", "observed": 95.9}
{"molecule": "CC(=O)c1ccc(NC(=O)c2cc(CC(C)C)on2)cc1", "observation_type": "viability", "observed": 89.2}
{"molecule": "O=C(COC(=O)c1ccco1)NCc1cccs1", "observation_type": "viability", "observed": 106}
{"molecule": "CN(CC(=O)O)S(=O)(=O)c1cc(Cl)ccc1Cl", "observation_type": "viability", "observed": 96.8}
{"molecule": "CC1Cc2ccccc2N1Cc1cc(=O)n2ccsc2n1 (centres undefined)", "observation_type": "viability", "observed": 74.7}
{"molecule": "O=C(CSc1nc2ccccc2o1)N1CCN(c2ccc(Cl)cc2)CC1", "observation_type": "viability", "observed": 87.4}
{"molecule": "CC(C)COc1ccc(-c2nnn(CC(=O)N3CCCC3)n2)cc1", "observation_type": "viability", "observed": 104}
{"molecule": "Cc1[nH]nc2c1C(=O)CCC2", "observation_type": "viability", "observed": 101}
